assay: Viability qHTS for spleen associated tyrosine kinase inhibitor (SYKi) naive MV4-11 cells (AID 1963823); details: MV4-11 AML viability, CellTiter-Glo luminescence, 72 h; series mostly up to 45 µM; note: nearly all actives have a fitted effect of over 40% in size
Inconclusive results are not listed. Activity calls are given as the source filed them. Calls come from the whole dose curve; as a rule, active = well fitted cell-killing curve with a large enough effect; inconclusive = small, poorly fitted or top-dose-only effect, or effect the other way; inactive = no such curve, though single readings can be large or run the other way.
Classes used: active, inactive

Compound	Assigned label
CC(C)C(C)C=CC(C)C1CCC2C3=CC=C4CC(O)CCC4(C)C3CCC21C (stereo not given)	inactive
C=C1[C@@H]2CC[C@@H]3[C@@](CCC4C(C(=O)O)(C(=O)O)C[C@@H](O[C@@H]5O[C@H](CO)[C@@H](O)[C@H](O)[C@H]5OC(=O)CC(C)C)C[C@]43C)(C2)[C@H]1O (stereo not given in full)	inactive
CC(C)(C)c1nc(-c2cccc(NS(=O)(=O)c3c(F)cccc3F)c2F)c(-c2ccnc(N)n2)s1	active
CC1=C(C(=O)O)/C(=C/CO[C@@H]2O[C@H](COC(=O)/C=C/c3ccc(O)cc3)[C@@H](O)[C@H](O)[C@H]2O)C(O)C1 (stereo not given in full)	inactive
CC(CCC1(O)OC2CC3C4CC=C5CC(O[C@@H]6O[C@H](CO)[C@@H](O[C@@H]7O[C@@H](C)[C@H](O)[C@@H](O)[C@H]7O)[C@H](O)[C@H]6O[C@@H]6O[C@@H](C)[C@H](O)[C@@H](O)[C@H]6O)CCC5(C)C4CCC3(C)C2C1C)CO[C@@H]1O[C@H](CO)[C@@H](O)[C@H](O)[C@H]1O (stereo not given in full)	active
CC1=C(C)C(=O)OC(C(C)C2CCC3C4C5OC5C5(O)CC(OC6OC(CO)C(OC7OC(C)C(O)C(O)C7O)C(O)C6O)CC(O)C5(C)C4CCC23C)C1 (stereo not given)	inactive
CC(=O)N1CCN(c2ccc(O)cc2)CC1	inactive
C=CC(=O)N1CCCC(n2nc(-c3ccc(Oc4ccccc4)cc3)c3c(N)ncnc32)C1 (stereo not given)	active
COCc1c(-c2ccc(NC(=O)Nc3cc(C(F)(F)F)ccc3F)c(F)c2)c2c(N)ncnn2c1CN1CCOCC1	active
CO[C@@H]1C(N(C)C(=O)c2ccccc2)C[C@H]2O[C@]1(C)n1c3ccccc3c3c4c(c5c6ccccc6n2c5c31)C(=O)NC4=O (stereo not given in full)	active
CC(=O)N[C@@H](Cc1c[nH]c2ccccc12)C(=O)N[C@@H](CCC(=O)O)C(=O)N[C@@H](Cc1cnc[nH]1)C(=O)N[C@@H](CC(=O)O)C(=O)Nc1ccc2c(C(F)(F)F)cc(=O)oc2c1	inactive
COc1ccc(-c2ccccc2)cc1NS(=O)(=O)c1cc(Cl)cc(Cl)c1O	inactive
CCCCCCCOc1ccc(CCC(N)(CO)CO)cc1C(F)(F)F	active
CC1CC[C@]2(C(=O)O)CC[C@]3(C(=O)O)C(=CCC4[C@@]5(C)CC[C@H](OC6OC(C)C(O)C(OC7OC(CO)C(O)C(O)C7O)C6O)C(C)(C)C5CC[C@]43C)C2C1C (stereo not given in full)	inactive
O=C(O)C[C@H]1CCC(=O)[C@@H]1C/C=C\CCO	inactive

###

experiment: Cellular viability qHTS for adrenocortical cancer (ACC) cell line NCI-H295R (AID 1963990); conditions: CellTiter-Glo ATP luminescence, 48 h; series mostly up to 46.1 µM; note: nearly all actives have a fitted effect of over 60% in size; note: potency is the fitted concentration of half-maximal effect
Records with an inconclusive call do not appear. Calls of active or inactive are those of the source. Calls come from the whole dose curve; as a rule, active = well fitted cell-killing curve with a large enough effect; inconclusive = small, poorly fitted or top-dose-only effect; inactive = flat fitted curve, though single readings scatter.
Experimental readout: Potency

> print(dat)
                                   molecule     measured.value
1  Cc1cc(N2CCOCC2)cc2[nH]c(-c3c(NC[C@@H](O)c4cccc(Cl)c4)cc[nH]c3=O)nc12   5.01 µM (active)
2  C[C@H]1[C@H](NC(=O)/C(=N/OC(C)(C)C(=O)O)c2csc(N)n2)C(=O)N1S(=O)(=O)O (stereo in doubt)           inactive
3  Cc1cn(CCN2CCN(c3ccccc3-c3cc(C#N)cc(C(=O)NCCCN4CCCC4)c3)CC2)c2ccccc12   5.62 µM (active)
4  Cc1cc2c(C(C)C)c(O)c(O)c(C=O)c2c(O)c1-c1c(C)cc2c(C(C)C)c(O)c(O)c(C=O)c2c1O    8.2 µM (active)
5  COc1cccc(Nc2c(C(N)=O)cnc3c(C)cc(S(=O)(=O)c4cccc(C(=O)N(C)C)c4)cc23)c1           inactive
6  COc1c(OCCCN2CCOCC2)ccc2c3n(c(=NC(=O)c4cnc(N)nc4)nc12)CCN3  0.237 µM (active)
7  O=C(CCCCCCNC(=O)c1cnc(N(c2ccccc2)c2ccccc2)nc1)NO   14.1 µM (active)
8  Nc1ncn([C@@H]2O[C@H](CO)[C@@H](O)[C@H]2O)c(=O)n1           inactive

###

molecular target: Cytochrome P450 3A7 (Homo sapiens) (UniProt P24462); experiment: Cytochrome P450 family 3 subfamily A member 7 (CYP3A7) small molecule antagonists: luciferase biochemical qHTS assay (AID 1963596); settings: P450-Glo CYP3A7 enzyme luminescence, 1 h; series mostly up to 57.4 µM; note: nearly all actives have a fitted effect of over 40% in size
Sequence (P24462 whole entry, looked up): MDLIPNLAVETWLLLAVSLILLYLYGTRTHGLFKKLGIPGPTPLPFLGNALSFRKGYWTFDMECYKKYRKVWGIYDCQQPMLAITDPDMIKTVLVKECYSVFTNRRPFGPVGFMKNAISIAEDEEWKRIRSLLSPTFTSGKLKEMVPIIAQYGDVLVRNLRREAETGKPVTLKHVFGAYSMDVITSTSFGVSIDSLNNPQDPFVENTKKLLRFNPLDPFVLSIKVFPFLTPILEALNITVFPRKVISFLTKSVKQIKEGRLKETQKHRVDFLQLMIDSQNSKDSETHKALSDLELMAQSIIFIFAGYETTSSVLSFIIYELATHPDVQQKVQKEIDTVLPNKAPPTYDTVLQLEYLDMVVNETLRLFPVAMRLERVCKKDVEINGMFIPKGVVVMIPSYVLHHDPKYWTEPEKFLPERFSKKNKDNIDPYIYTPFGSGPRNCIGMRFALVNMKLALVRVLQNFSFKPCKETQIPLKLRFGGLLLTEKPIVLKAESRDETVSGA
Inconclusive results are not listed. The source made the active and inactive calls. Calls follow the shape of the dose curve; as a rule, active = well fitted inhibition curve with a large enough effect; inconclusive = small, poorly fitted or top-dose-only effect; inactive = no such curve, though single readings can be large or run the other way.
Labels: active, inactive

> print(dat)
                                    compound                        measurement.target  assigned.label
 1           Cc1cc(NS(=O)(=O)c2ccc(N)cc2)no1  Cytochrome P450 3A7 (Homo sapiens) (UniProt P24462)        inactive
 2          CC(C)NC(=O)c1ccc(C#Cc2ccncc2)cn1  Cytochrome P450 3A7 (Homo sapiens) (UniProt P24462)        inactive
 3  O=C(O)c1cc(C(F)(F)F)ccc1N1CC[C@H](OCc2ccccn2)C1  Cytochrome P450 3A7 (Homo sapiens) (UniProt P24462)        inactive
 4  Clc1ccc(C2(c3ccc(-c4cn[nH]c4)cc3)CCNCC2)cc1  Cytochrome P450 3A7 (Homo sapiens) (UniProt P24462)          active
 5                      S=C=Nc1ccc(N=C=S)cc1  Cytochrome P450 3A7 (Homo sapiens) (UniProt P24462)        inactive
 6                   CCCCC/C(C=O)=C\c1ccccc1  Cytochrome P450 3A7 (Homo sapiens) (UniProt P24462)        inactive
 7                      CN1C(=O)OC(C)(C)C1=O  Cytochrome P450 3A7 (Homo sapiens) (UniProt P24462)        inactive
 8                        CC(=O)Nc1cccc(O)c1  Cytochrome P450 3A7 (Homo sapiens) (UniProt P24462)        inactive
 9                c1ccc2[nH]c(-c3cscn3)nc2c1  Cytochrome P450 3A7 (Homo sapiens) (UniProt P24462)        inactive
10  CCOC(=O)C(O)c1ccccc1 (configuration not stated)  Cytochrome P450 3A7 (Homo sapiens) (UniProt P24462)        inactive
11  CCNC(=O)N1CCCN(c2ccc(C(=O)NCCc3ccc(Cl)cc3Cl)cc2NC(=O)c2cccc(Cl)c2)CC1  Cytochrome P450 3A7 (Homo sapiens) (UniProt P24462)        inactive
12  CC(C)c1c2cc(-c3ccnc(NC4CCC(NC5CCOCC5)CC4)n3)ccc2nn1C (configuration not stated)  Cytochrome P450 3A7 (Homo sapiens) (UniProt P24462)        inactive

###

assay: Cellular viability qHTS for adrenocortical cancer (ACC) cell line SW-13 (AID 1963989); settings: SW-13 ACC cells viability, CellTiter-Glo, 48 h; note: potency is the fitted concentration of half-maximal effect; nearly all actives have a fitted effect of over 65% in size
Inconclusive results are not listed. The source made the active and inactive calls. Calls follow the shape of the dose curve; as a rule, active = well fitted cell-killing curve with a large enough effect; inconclusive = small, poorly fitted or top-dose-only effect; inactive = flat fitted curve, though single readings scatter.
Recorded Potency for the following compounds
Experimental readout: Potency

> print(dat)
                                    compound      measured.value
 1                    CC(C)(C)c1ccc(O)c(O)c1      10 µM (active)
 2  O=[N+]([O-])c1ccc(Nc2ccccc2-c2ccccc2)c2nonc12    8.91 µM (active)
 3  C[C@@H](Oc1cc(-n2cnc3ccc(CN4CCN(C)CC4)cc32)sc1C(N)=O)c1ccccc1C(F)(F)F  0.0501 µM (active)
 4  CC(C)c1ccc(Cn2ccc3c4c(N)nc(NC5CC5)nc4ccc32)cc1   0.398 µM (active)
 5  Cc1cc(Nc2nc(N[C@@H](C)c3ccc(F)cc3)c(C#N)cc2F)n[nH]1    3.16 µM (active)
 6  CC1(C)CC(=O)c2c(C(F)(F)F)nn(-c3ccc(C(N)=O)c(NC4CCC(O)CC4)c3)c2C1 (stereo not given)   0.224 µM (active)
 7        CN1CCC(=C2c3ccccc3C=Cc3ccccc32)CC1    25.1 µM (active)
 8             CCc1ccc(/C=C2/SC(=S)NC2=O)cc1    25.1 µM (active)
 9  Cc1ccc(C(N)=O)cc1Nc1nccc(-c2cn(C(C)C)c3cnccc23)n1    8.91 µM (active)
10  CCCCCCCCCCCCCCCCCCNC(=O)OC1CCN(C(=O)OC[C@H](COC(=O)N(Cc2cccc[n+]2CC)C(=O)c2ccccc2OC)OC)CC1    7.31 µM (active)

Entry source: PubChem BioAssay (NCATS)
